Reported shrunken log2 fold change values are given for each entry in this list.
test system: Escherichia coli TOP10; test: shrunken log2 fold change of peptide-encoding DNA abundance (4.5 h post-induction vs induction); higher = less antimicrobial activity (less host growth inhibition); conditions: time post-induction: 4.5 h; library: site-saturation at positions 5, 18, 19, 20
API note: the answer field is a bare number with no unit suffix.

Sample records with shrunken log2 fold change:
RRIRYRPPRLPRPRPRPPYSPRP = -0.45
RRIRKRPPRLPRPRPRPGGGPRP = 0.976
RRIRTRPPRLPRPRPRPSTKPRP = -0.145
RRIRGRPPRLPRPRPRPNVIPRP = 0.211

// next item, shrunken log2 fold change requested
So what's the measured shrunken log2 fold change for this one? "RRIRYRPPRLPRPRPRPTFAPRP"
-0.321

---

test system: Escherichia coli TOP10; experiment: shrunken log2 fold change of peptide-encoding DNA abundance (4.5 h post-induction vs induction); higher = less antimicrobial activity (less host growth inhibition); details: time post-induction: 4.5 h; library: site-saturation at positions 5, 18, 19, 20
Each record's class is read off its shrunken log2 fold change using these ranges: LOW (below -0.08), MID (-0.08 to below 0.08), HIGH (0.08 or more)

Solved cases below.
RRIRYRPPRLPRPRPRPQYCPRP = LOW
RRIRRRPPRLPRPRPRPIRVPRP = HIGH
RRIRKRPPRLPRPRPRPEVQPRP = HIGH
RRIRGRPPRLPRPRPRPKPGPRP = HIGH
RRIRSRPPRLPRPRPRPIYPPRP = LOW
RRIRFRPPRLPRPRPRPYLEPRP = MID
RRIRSRPPRLPRPRPRPMDKPRP = MID
RRIRLRPPRLPRPRPRPCMNPRP = MID
RRIRIRPPRLPRPRPRPTKKPRP = MID
RRIRIRPPRLPRPRPRPIMVPRP = LOW

GET /class?item= "RRIRERPPRLPRPRPRPELKPRP"
HIGH

Item: "RRIRDRPPRLPRPRPRPGTHPRP"
HIGH

Now consider "RRIRYRPPRLPRPRPRPAKRPRP" and answer again.
HIGH

Would you kindly repeat that for "RRIRSRPPRLPRPRPRPWMQPRP" ?
MID

---

shrunken log2 fold change for assorted sequences
test system: Escherichia coli TOP10; experiment: shrunken log2 fold change of peptide-encoding DNA abundance (4.5 h post-induction vs induction); higher = less antimicrobial activity (less host growth inhibition); conditions: time post-induction: 4.5 h; library: site-saturation at positions 5, 18, 19, 20;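 also: peptides expressed intracellularly from a pBAD plasmid library in pooled LB shake-flask culture, induced with 0.3% L-arabinose, DNA abundance read by NGS, three biological replicates, DESeq2 with apeglm shrinkage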
# print the numeric value only

Here are 2 sequences together with their reported answers.
RRIRGRPPRLPRPRPRPEVKPRP = 0.0386
RRIRARPPRLPRPRPRPIDSPRP = -0.0515

For Escherichia coli TOP10, provide shrunken log2 fold change of "RRIRQRPPRLPRPRPRPTIWPRP" please.
-0.0969

What do we get for "RRIRRRPPRLPRPRPRPMAEPRP" ?
-0.0431

Then this sequence: "RRIRARPPRLPRPRPRPTLFPRP"
0.663

Then what about the sequence "RRIRKRPPRLPRPRPRPIRCPRP" ?
0.0497

Also check "RRIRMRPPRLPRPRPRPVWDPRP"
-0.136

"RRIRCRPPRLPRPRPRPDQIPRP" , same question.
-0.212

Param item: "RRIRGRPPRLPRPRPRPCMLPRP"
0.336

Request: "RRIRTRPPRLPRPRPRPIDMPRP"
0.00748

Would you mind doing "RRIRGRPPRLPRPRPRPLGRPRP" as well?
0.599

Okay, and "RRIRDRPPRLPRPRPRPTIKPRP" ?
-0.295

Now try "RRIRRRPPRLPRPRPRPYLTPRP" .
0.0355
